Target: T1, human LILRA6 (human, UniProt Q6PI73 24-481)
T1 construct: Over-expressed on CHO-s cells; also called hLILRA6
T1 sequence (Q6PI73 24-481 limits assumed): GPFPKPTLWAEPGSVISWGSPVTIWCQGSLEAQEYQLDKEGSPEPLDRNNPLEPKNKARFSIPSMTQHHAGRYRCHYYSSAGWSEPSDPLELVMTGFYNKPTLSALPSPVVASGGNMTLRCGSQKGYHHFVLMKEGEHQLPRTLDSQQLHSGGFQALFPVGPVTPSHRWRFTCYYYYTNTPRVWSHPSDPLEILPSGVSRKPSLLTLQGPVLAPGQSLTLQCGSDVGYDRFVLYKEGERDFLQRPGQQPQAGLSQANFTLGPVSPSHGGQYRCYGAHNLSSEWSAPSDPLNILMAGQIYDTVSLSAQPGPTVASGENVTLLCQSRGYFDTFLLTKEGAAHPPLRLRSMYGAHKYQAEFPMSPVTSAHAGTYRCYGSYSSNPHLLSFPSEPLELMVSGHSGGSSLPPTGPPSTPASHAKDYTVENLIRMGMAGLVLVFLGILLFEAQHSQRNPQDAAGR
Assay: flow cytometry, LILRA6 CHOs
Description: To test for specificity to hLILRB2 and not towards any of the ten LILR family members, a multiplexed cell-based barcoding approach was used by staining cells with Far Red and/or Violet Cell Trace dyes (Thermo Scientific) according to manufacturer's protocol or left unstained. […] Samples were analyzed using the Celesta flow cytometer analyzer (BD Biosciences). Geometric mean fluorescence intensity (gMFI) of PE was determined for each antibody across each cell line. […]

[
  {
    "binder": "J-19.h1 (antibody, human IgG4 S228P, kappa, V domains shown, Humanized, human IgG4 backbone) VH: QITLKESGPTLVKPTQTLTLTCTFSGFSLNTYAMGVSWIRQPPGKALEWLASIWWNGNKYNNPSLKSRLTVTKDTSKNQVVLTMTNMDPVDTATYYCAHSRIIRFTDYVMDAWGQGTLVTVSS VL: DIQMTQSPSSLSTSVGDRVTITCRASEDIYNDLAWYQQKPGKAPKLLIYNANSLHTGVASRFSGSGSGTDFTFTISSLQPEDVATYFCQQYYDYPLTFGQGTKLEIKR",
    "binding (fold over iso)": 0.98
  }
]
